A collection of sequences and their measured self-splicing fitness (ln)
test: self-splicing fitness, log relative to wild type (ln ratio); higher = more splicing; Tetrahymena group I intron in knt gene, E. coli kanamycin selection, DiMSum; sequences stand for … in CUCUCU…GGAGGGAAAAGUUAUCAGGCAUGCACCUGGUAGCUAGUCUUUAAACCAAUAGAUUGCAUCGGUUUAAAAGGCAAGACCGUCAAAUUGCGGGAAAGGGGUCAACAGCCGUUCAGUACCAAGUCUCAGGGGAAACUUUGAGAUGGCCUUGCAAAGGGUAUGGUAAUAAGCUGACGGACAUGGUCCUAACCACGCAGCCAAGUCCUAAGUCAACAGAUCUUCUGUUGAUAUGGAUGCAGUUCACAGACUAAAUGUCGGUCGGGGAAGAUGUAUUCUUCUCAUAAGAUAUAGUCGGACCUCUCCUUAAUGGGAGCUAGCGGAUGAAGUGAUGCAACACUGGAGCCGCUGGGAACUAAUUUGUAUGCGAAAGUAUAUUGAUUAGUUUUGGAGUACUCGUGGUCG; conditions: 37 °C;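 note: selection with 25 µg/mL kanamycin versus none on LB agar overnight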

Use these answered entries as a reference point.
[
  {
    "Biopolymer sequence": "GUCAAGCAAUAUUACGCUCC",
    "self-splicing fitness (ln)": -1.62
  },
  {
    "Biopolymer sequence": "UAUGAGCAAUAUUACGUAUA",
    "self-splicing fitness (ln)": -1.02
  },
  {
    "Biopolymer sequence": "UGAAAGCAAUAUUACGCGAA",
    "self-splicing fitness (ln)": -1.05
  }
]

Lookup: Any idea what its self-splicing fitness (ln) is? The sequence is "UUUUAGCAAUAUUACGCUCU"
Found: -0.135

Lookup: Any idea what its self-splicing fitness (ln) is? The sequence is "UGGGAGCAAUAUUACGGCAU"
Found: -2.47

// data source = the supplement of paper PMC7877785
